Tested on: MALME-3M melanoma
PROTOCOL NOTES: NCI tumour cell line growth inhibition, 48 h
Reported values of TGI for individual entries

MOLECULE: CN(C)CCn1cnc2sc3ccccc3c21
TGI: > 100 µM
//
MOLECULE: C/C(=C1\SC(=NCc2cccs2)NC1=O)c1ccc2ncccc2c1
TGI: > 25 µM
//
MOLECULE: CCOC(=O)Nc1cc(NC(/C=N/NC(C)=O)C(=O)OCC)c(OC)cc1NC(C)=O (centres undefined)
TGI: > 100 µM
//
MOLECULE: Cn1cc(-c2nonc2-c2cn(C)c3ccc(F)cc23)c2ccccc21
TGI: > 100 µM
//
MOLECULE: O=C(N=Nc1c(O)[nH]c2ccccc12)C(O)(c1ccccc1)c1ccccc1
TGI: 46.5 µM
//
MOLECULE: COc1ccc(C(CC(C)=O)c2c(O)c3ccccc3oc2=O)cc1OC (centres undefined)
TGI: > 100 µM
//
MOLECULE: COc1ccc(C2C(C#N)=C(O)NC(O)=C2C#N)cc1OC
TGI: > 100 µM
//
MOLECULE: CCN1C(C)(C)CC(Oc2ccc(C(=O)Nc3ccc(NC(=O)Nc4cc(C(C)(C)C)on4)cc3)nc2)CC1(C)C
TGI: 3.37 µM
//
MOLECULE: CCCCCCCCCCCCCCCCCCOP1(=O)OCCO1
TGI: > 100 µM
//
MOLECULE: O=c1[nH]cnc2c1ccn2C1OC(CO)C(O)C1O (centres undefined)
TGI: 32.8 µM
//
MOLECULE: C#C[C@]1(O)CCC2C3CCc4cc(Oc5nc(F)nc(-n6c(C)nc7cc8ccccc8cc76)n5)ccc4C3CCC21C (some centres undefined)
TGI: > 100 µM
//
MOLECULE: O=C(Nc1ccc2[nH]c3c(-c4ccccc4)nccc3c2c1)c1ccccc1[N+](=O)[O-]
TGI: 3.64 µM
//
MOLECULE: O=C(NCc1ccccc1)c1cc2ccc(O)c(O)c2cn1
TGI: 30.4 µM
//
MOLECULE: C=C1CCC(OC(C)=O)C2(C)C(OC(C)=O)CC3OC3(C)C2C(OC(C)=O)C2C(C)C(=O)OC2C1Cl (centres undefined)
TGI: > 100 µM
//
MOLECULE: COc1cc2c(cc1OC)C(C#N)(Cc1ccccc1)N(C(=O)c1ccccc1)C=C2 (centres undefined)
TGI: > 100 µM
//
MOLECULE: CC(C)c1cc2c(c(O)c1O)[C@@]1(C)CCCC(C)(C)C1=C(O)C2
TGI: 3.36 µM
//
MOLECULE: COc1ccc2c(C)cc(C)nc2n1
TGI: > 100 µM
//
MOLECULE: O=C1/C(=C\c2ccc(Cl)cc2)CCOc2c1ccc1ccccc21
TGI: 57.9 µM
//
MOLECULE: CCCCCCCCCC(CCCC(O)CC(=O)O)OC1OC(COC2OC(C)C(O)C(O)C2O)C(O)C(O)C1OC1OC(CO)C(O)C(O)C1OC1OC(C)C(OC(=O)CC(C)C)C(O)C1O (centres undefined)
TGI: > 60 µM
//
MOLECULE: COc1cccc2c1C(=O)c1c(O)c3c(c(O)c1C2=O)C[C@@](O)(C(C)=O)C[C@@H]3O[C@H]1C[C@H](N)[C@H](O)[C@H](C)O1
TGI: 0.235 µM
//
MOLECULE: Cc1cc(C)nc(Sc2c([N+](=O)[O-])ncn2C)n1
TGI: > 100 µM
//
MOLECULE: COc1cccc2c(=O)c3c(n(C)c12)OC(C(C)C)C3 (centres undefined)
TGI: > 100 µM
//
MOLECULE: COc1ccc2cc(C(=O)CCC(=O)O)ccc2c1
TGI: > 100 µM
//
MOLECULE: COc1ccc2c(c1)OCCCN(C)OC2c1ccccc1 (centres undefined)
TGI: > 100 µM
